Overview of reported ΔTm* (Tm relative to DNA compliment) across a group of substances:
System: complementary DNA
Experimental Protocol: Thermal denaturation (UV melting) of AON duplexes with complementary DNA
Type: binding
Measurement Setup: relative to native AON 1/DNA duplex
Endpoint Name: ΔTm* (Tm relative to DNA compliment) (°C)

| Substance | Reading |
| --- | --- |
| 3′-d(CTTCTTTT(aza-ENA)TTACTTC)-5′ (antisense CTTCTTTTTTACTTC; aza-ENA-T at position 8 from 3'-end, chemistry not fully specified) [AON 16, aza-ENA-T modified AON, position 8 from 3′-end] | −3 |
| 3′-d(CTTCTTTT(5-carbo)TTACTTC)-5′ (antisense CTTCTTTTTTACTTC; carbocyclic-LNA-T at position 8 from 3'-end, chemistry not fully specified) [AON 8, carbocyclic-LNA-T modified AON, position 8 from 3′-end] | −1.00 |
| 3′-d(CTTCTTTTTT(aza-ENA)ACTTC)-5′ (antisense CTTCTTTTTTACTTC; aza-ENA-T at position 10 from 3'-end, chemistry not fully specified) [AON 17, aza-ENA-T modified AON, position 10 from 3′-end] | −3 |
| 3′-d(CTTCTT(aza-ENA)TTTTACTTC)-5′ (antisense CTTCTTTTTTACTTC; aza-ENA-T at position 6 from 3'-end, chemistry not fully specified) [AON 15, aza-ENA-T modified AON, position 6 from 3′-end] | −2.5 |
